- testSystem: T1, human IL-23R endogenously expressed on DB cells (human, UniProt Q5VWK5 24-629)
- T1 sequence (looked up): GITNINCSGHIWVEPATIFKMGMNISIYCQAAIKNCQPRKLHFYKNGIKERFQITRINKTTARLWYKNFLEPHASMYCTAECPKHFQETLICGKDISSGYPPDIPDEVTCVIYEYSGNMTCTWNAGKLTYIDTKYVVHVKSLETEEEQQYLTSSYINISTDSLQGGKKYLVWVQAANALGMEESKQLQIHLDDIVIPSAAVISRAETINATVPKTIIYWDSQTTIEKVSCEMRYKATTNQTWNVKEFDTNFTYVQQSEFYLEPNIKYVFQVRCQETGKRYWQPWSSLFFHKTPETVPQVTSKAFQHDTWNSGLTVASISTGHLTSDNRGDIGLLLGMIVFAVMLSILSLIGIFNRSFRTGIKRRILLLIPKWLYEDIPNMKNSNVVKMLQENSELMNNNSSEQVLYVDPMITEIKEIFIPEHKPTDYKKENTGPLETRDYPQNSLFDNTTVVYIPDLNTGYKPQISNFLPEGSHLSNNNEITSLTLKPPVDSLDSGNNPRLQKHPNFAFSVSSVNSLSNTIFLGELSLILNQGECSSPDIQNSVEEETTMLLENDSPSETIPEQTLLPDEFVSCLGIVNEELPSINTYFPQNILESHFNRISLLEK
- assayText: cell-based or functional assay
Bridges are numbered along the chain shown (N, C = ends). Primed or numbered codes have the meaning given here. [ ]: non-standard residue; d: D form. 1,3‑dibromopropan‑2‑one″ = linker forming 1,3-dithio-propan-2-one bridge -SCH2C(=O)CH2S- between two Cys; 2Nal = N[C@@H](Cc1ccc2ccccc2c1)C(=O)O; AEF = NCCOc1ccc(C[C@H](N)C(=O)O)cc1; 3Pal = N[C@@H](Cc1cccnc1)C(=O)O; αMeL = CC(C)C[C@](C)(N)C(=O)O; 3Amb = NCc1cccc(C(=O)O)c1; Dab = NCC[C@H](N)C(=O)O
quantityMeasured: hIL-23 (pSTAT3) antagonist IC50 (nM)
Answer format: numeric, nM implied, no suffix.

Would you please look over these solved cases?
1. XQTWQCXWXENG ([Ac]-[Abu](16i)QTWQC(16i)[Y(2-aminoethoxy)]W[2-Me-Lys]ENG-[NH2]; (16i) [2,7] thioether bridge (Abu and Cys form a cystathionine)) [Compound C] = 13
2. KIVWQE[AEF][2Nal][αMeL]E[Dab][3Pal]-NHMe (lactam 1-10, N-6; SMILES CC[C@H](C)[C@@H]1NC(=O)[C@@H]2CCCCNC(=O)CC[C@@H](C(=O)N[C@@H](CCN)C(=O)N[C@@H](Cc3cccnc3)C(=O)NC)NC(=O)[C@](C)(CC(C)C)NC(=O)[C@H](Cc3ccc4ccccc4c3)NC(=O)[C@H](Cc3ccc(OCCN)cc3)NC(=O)[C@H](CCC(=O)N2)NC(=O)[C@H](CCC(N)=O)NC(=O)[C@H](Cc2c[nH]c3ccccc23)NC(=O)[C@H](C(C)C)NC1=O) [Compound 60] = 0.63

Next up:
Notebook: [3Amb]SCWQC[AEF][2Nal][αMeL]E[dR]-NH2 (lactam N-10; linker 3-6 via 1,3‑dibromopropan‑2‑one″) [Ref 41] , hIL-23 (pSTAT3) antagonist IC50 read as 29
